TARGET ENTITY: Cytochrome P450 2C9 (Homo sapiens, UniProt P11712)
Sequence (P11712 whole entry): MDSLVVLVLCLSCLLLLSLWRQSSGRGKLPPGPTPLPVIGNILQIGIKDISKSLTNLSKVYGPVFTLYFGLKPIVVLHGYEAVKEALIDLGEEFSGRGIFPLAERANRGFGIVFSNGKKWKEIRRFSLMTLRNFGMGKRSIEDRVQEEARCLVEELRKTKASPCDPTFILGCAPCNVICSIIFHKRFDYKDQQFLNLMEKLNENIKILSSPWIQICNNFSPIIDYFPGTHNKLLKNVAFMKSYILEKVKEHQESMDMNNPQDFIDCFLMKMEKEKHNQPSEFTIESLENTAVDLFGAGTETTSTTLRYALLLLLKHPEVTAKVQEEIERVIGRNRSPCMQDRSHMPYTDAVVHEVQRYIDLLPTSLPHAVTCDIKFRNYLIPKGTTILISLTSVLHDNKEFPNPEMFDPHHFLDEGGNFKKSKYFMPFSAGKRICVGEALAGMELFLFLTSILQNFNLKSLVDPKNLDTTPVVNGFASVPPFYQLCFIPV
ASSAY PROCEDURE: Inhibition of CYP2C9 after 30 mins by luminescence assay
pEC50: −log10 of the molar value.
MEASURED ENDPOINT: pEC50

Consider the following illustrative entries.
COC(=O)c1ccc(C)c(NS(=O)(=O)c2ccc(OC)c(OC)c2)c1 = 5.60
COC(=O)c1ccc(C)c(NS(=O)(=O)c2ccc(OC)cc2)c1 = 5.40
COC(=O)c1ccc(C)c(NS(=O)(=O)c2ccc(C)cc2)c1 = 5.80
COC(=O)c1ccc2c(c1)N(S(=O)(=O)c1ccc(C)cc1)CCO2 = 5.40
COC(=O)c1ccc(C)c(N(C)S(=O)(=O)c2ccc(OC)cc2)c1 = 4.60

a: COC(=O)c1ccc(OC)c(NS(=O)(=O)c2ccc(OC)cc2)c1
b: COC(=O)c1ccc(C)c(NS(=O)(=O)c2ccc(NC(C)=O)cc2)c1
c: COC(=O)c1ccc(C)c(N(C)S(=O)(=O)c2ccc(C)cc2)c1
Query :: Rank descending by pEC50. Sort and list the labels as requested.
Result :: b, c, a
